- system-tested: IDO1 (Homo sapiens, UniProt P14902)
- Sequence (P14902 whole entry): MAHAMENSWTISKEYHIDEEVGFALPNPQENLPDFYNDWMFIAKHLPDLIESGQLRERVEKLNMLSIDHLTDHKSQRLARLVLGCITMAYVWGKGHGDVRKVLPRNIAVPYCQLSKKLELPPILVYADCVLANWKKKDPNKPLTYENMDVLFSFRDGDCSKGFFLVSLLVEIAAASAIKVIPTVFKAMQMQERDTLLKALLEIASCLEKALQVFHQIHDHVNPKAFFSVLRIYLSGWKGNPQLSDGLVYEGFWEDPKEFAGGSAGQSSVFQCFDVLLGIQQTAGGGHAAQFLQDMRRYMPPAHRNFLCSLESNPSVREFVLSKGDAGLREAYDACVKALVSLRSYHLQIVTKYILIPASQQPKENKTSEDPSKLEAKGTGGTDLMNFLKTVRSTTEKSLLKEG
- experiment-summary: IDO1 Cellular Assay in HeLa Cells Stimulated with IFNγ
- Assay type: cell-based
- condition-description: IFNγ 100 ng/mL, 300 uM L-tryptophan, about 48 hours, fluorescence readout, read-out: IDO1 HELA Cell Assay, IC50
pIC50: −log10 of the molar value.
assay-endpoint: pIC50

Consider the reported pIC50 for these compounds:
Name the value of pIC50 reported for Cc1cccc(C2CCN(C(=O)Cn3nc(C(=O)N4CC[C@@H](O)[C@@H](C)C4)c4c3C[C@H]3C[C@@H]43)CC2)c1C when tested on IDO1 (Homo sapiens, UniProt P14902).
8.96

With IDO1 (Homo sapiens, UniProt P14902) as the test system, provide measured pIC50 for this compound: Cc1ccccc1C1CCN(C(=O)Cn2nc(C(=O)N3C[C@@H](C)O[C@@H](C)C3)c3c2CCC3)CC1
8.01

Under IDO1 (Homo sapiens, UniProt P14902): report pIC50 of Cc1c(Cl)cc(Cl)cc1C1CCN(C(=O)Cn2nc(C(=O)N3C[C@@H](C)O[C@@H](C)C3)c3c2CCC3)CC1 .
7.26

Answer briefly: pIC50 recorded on IDO1 (Homo sapiens, UniProt P14902) for Cc1c(C2CCN(C(=O)Cn3nc(C(=O)N4C[C@@H](C)O[C@@H](C)C4)c4c3CCC4)CC2)cccc1C(F)(F)F
8.38

(I) Cc1cccc(C2CCN(C(=O)Cn3nc(C(=O)N4CC[C@@H](O)[C@H](F)C4)c4c3CCC4)CC2)c1C
(II) Cc1cccc(C2CCN(C(=O)Cn3nc(C(=O)N4CC[C@H](O)[C@H](C)C4)c4c3C[C@H]3C[C@@H]43)CC2)c1C
(III) Cc1cc(F)ccc1C1CCN(C(=O)Cn2nc(C(=O)N3CC[C@H](O)[C@H](F)C3)c3c2CCC3)CC1
Could you please sort these 3 entries by pIC50 from high to low? Give the order by naming the labels one after another as requested.
II, I, III

(A) C[C@@H]1CN(C(=O)c2nn(CC(=O)N3CCC(c4cccc5sccc45)CC3)c3c2CCC3)C[C@H](C)O1
(B) Cc1cccc(C2CCN(C(=O)Cn3nc(C(=O)N4CC[C@@H](O)[C@H](C)C4)c4c3C[C@H]3C[C@@H]43)CC2)c1C
Response body: label of entry with the larger pIC50; valid values A , B . Choose, then provide that item's label.
B

(I) Cc1cc(F)cc(C2CCN(C(=O)Cn3nc(C(=O)N4C[C@@H](C)O[C@@H](C)C4)c4c3CCC4)CC2)c1
(II) Cc1cccc(C2CCN(C(=O)Cn3nc(C(=O)N4CC[C@](C)(O)C4)c4c3CCC4)CC2)c1C
From the items above, decide which of I and II has the lower pIC50 reading. Record your answer as the label of the chosen record.
II

(1) C[C@@H]1CN(C(=O)c2nn(CC(=O)N3CCC(c4ccc(C(F)F)cc4F)CC3)c3c2CCC3)C[C@H](C)O1
(2) C[C@@H]1CN(C(=O)c2nn(CC(=O)N3CCC(C)(c4ccccc4)CC3)c3c2CCC3)C[C@H](C)O1
Record comparison, field pIC50: mark the lower of 1 and 2 . Selection: enter the item's label.
1
(1: 7.00, 2: 7.36)

###

- system-tested: IDO1 (Homo sapiens, UniProt P14902)
- experiment-summary: IDO1 Cellular Assay in HeLa Cells Stimulated with IFNγ
- Assay type: cell-based
- condition-description: IFNγ 100 ng/mL, 300 uM L-tryptophan, about 48 hours, fluorescence readout, read-out: IDO1 HELA Cell Assay, IC50
pIC50: −log10 of the molar value.
assay-endpoint: pIC50

Give the observed pIC50 of Cc1cccc(C2CCN(C(=O)Cn3nc(C(=O)N4CC[C@H](O)[C@@H](F)C4)c4c3CCC4)CC2)c1C for IDO1 (Homo sapiens, UniProt P14902).
8.74

# return pIC50 of CCc1ccccc1C1CCN(C(=O)Cn2nc(C(=O)N3C[C@@H](C)O[C@@H](C)C3)c3c2CCC3)CC1 (system: IDO1 (Homo sapiens, UniProt P14902))
7.42

(a) C[C@@H]1CN(C(=O)c2nn(CC(=O)N3CCC(F)(c4ccccc4)CC3)c3c2CCC3)C[C@H](C)O1
(b) C[C@@H]1CN(C(=O)c2nn(CC(=O)N3CCC(c4cccc5c4CCC5)CC3)c3c2CCC3)C[C@H](C)O1
Select the item whose pIC50 value is smaller, choosing between a and b . Bench note: the answer is the label of the chosen record.
a

###

- system-tested: IDO1 (Homo sapiens)
- experiment-summary: IDO1 Cellular Assay in HeLa Cells Stimulated with IFNγ
- Format: cell-based
- condition-description: IFNγ 100 ng/mL, 300 uM L-tryptophan, about 48 hours, fluorescence readout, read-out: IDO1 HELA Cell Assay, IC50
assay-endpoint: IC50 (µM)

Examples from the recorded data:
Please give measured IC50 of the following entry: Cc1cc(C(F)(F)F)ccc1C1CCN(C(=O)Cn2nc(C(=O)N3C[C@@H](C)O[C@@H](C)C3)c3c2CCC3)CC1
0.173

In one line, give reported IC50 of the entry Cc1cccc(C2(F)CCN(C(=O)Cn3nc(C(=O)N4CCC(N)CC4)c4c3C[C@H]3C[C@@H]43)CC2)c1C .
0.0904

Write down IC50 measured for item Cc1cccc(C2CCN(C(=O)Cn3nc(C(=O)N4CC[C@H](O)[C@@H](C)C4)c4c3C[C@H]3C[C@@H]43)CC2)c1C
0.0009

Identify measured IC50 associated with C[C@@H]1CN(C(=O)c2nn(CC(=O)N3CCC(c4ccc(F)c(Cl)c4)CC3)c3c2CCC3)C[C@H](C)O1
0.0277

Indicate the recorded IC50 value for this compound: C[C@@H]1CN(C(=O)c2nn(CC(=O)N3CCC(c4cc(Cl)ccc4F)CC3)c3c2CCC3)C[C@H](C)O1
0.261

(I) C[C@@H]1CN(C(=O)c2nn(CC(=O)N3CCC(c4ccc(Cl)c(Cl)c4)CC3)c3c2CCC3)C[C@H](C)O1
(II) C[C@@H]1CN(C(=O)c2nn(CC(=O)N3CCC(c4cc(F)cc(Cl)c4)CC3)c3c2CCC3)C[C@H](C)O1
Of I and II , whose reported IC50 is the larger number? API: response body contains the label of the selected item.
I
(I: 0.0545 µM, II: 0.0274 µM)

(a) Cc1cc(C)cc(C2CCN(C(=O)Cn3nc(C(=O)N4C[C@@H](C)O[C@@H](C)C4)c4c3CCC4)CC2)c1
(b) Cc1cccc(C2CCN(C(=O)Cn3nc(C(=O)N4CC[C@H](O)C4)c4c3CCC4)CC2)c1C
Which of the two gives a bigger number for IC50: a or b ? Select an item and report its label.
a
(a: 0.143 µM, b: 0.027 µM)

(1) C[C@@H]1CN(C(=O)c2nn(CC(=O)N3CC[C@@H](c4ccccc4)[C@@H](C)C3)c3c2CCC3)C[C@H](C)O1
(2) Cc1cccc(C2CCN(C(=O)Cn3nc(C(=O)N4CCOCC4)c4c3CCC4)CC2)c1C
Which of the two gives a bigger number for IC50: 1 or 2 ? // caller expects the label of the chosen entry
1
(1: 0.354 µM, 2: 0.016 µM)

(a) C[C@@H]1CN(C(=O)c2nn(CC(=O)N3CCC(c4cccc(F)c4F)CC3)c3c2CCC3)C[C@H](C)O1
(b) Cc1cccc(C2(F)CCN(C(=O)Cn3nc(C(=O)N4CCN(C(=O)CO)CC4)c4c3C[C@H]3C[C@@H]43)CC2)c1C
// compare measured IC50, left a , right b , return larger In your reply, give the label of the chosen option.
a

###

- system-tested: IDO1 (Homo sapiens)
- experiment-summary: IDO1 Cellular Assay in HeLa Cells Stimulated with IFNγ
- Type: cell-based
- condition-description: IFNγ 100 ng/mL, 300 uM L-tryptophan, about 48 hours, fluorescence readout, read-out: IDO1 HELA Cell Assay, IC50
- Description: Biological Assays IDO1 Cellular Assay in HeLa Cells Stimulated with IFNγ HeLa cells were cultured in complete HeLa culture medium (90% EMEM, 10% heat-inactivated fetal bovine serum) and expanded to about 1×10^9 cells. […] Frozen HeLa cells were thawed and transferred into HeLa assay medium (99% complete HeLa culture medium, 1% Pen/Strep) with 20 mL medium/vial of cells. […] The cells were then counted and adjusted to a density of 2×10^5 cells/mL in HeLa assay medium. […]
pIC50: −log10 of the molar value.
assay-endpoint: pIC50

Reference set (6 entries):
Recall and state the measured pIC50 for Cc1cccc(C2CCN(C(=O)Cn3nc(C(=O)N4CC[C@H](O)[C@@H](F)C4)c4c3CCCC4)CC2)c1C .
9.10

# return recorded pIC50 for entry COc1ccccc1C1CCN(C(=O)Cn2nc(C(=O)N3C[C@@H](C)O[C@@H](C)C3)c3c2CCC3)CC1
6.71

Supply measured pIC50 of Cc1cccc(C2CCN(C(=O)Cn3nc(C(=O)N4CC[C@H](O)[C@H](F)C4)c4c3C[C@@H]3C[C@H]43)CC2)c1C in your reply.
7.27

Annotate the compound C[C@@H]1CN(C(=O)c2nn(CC(=O)N3CCC(c4cccc(F)c4C(F)(F)F)CC3)c3c2CCC3)C[C@H](C)O1 with its measured pIC50.
7.30

Input [2H]c1c([2H])c([2H])c(C2CCN(C(=O)Cn3nc(C(=O)N4C[C@@H](C)O[C@@H](C)C4)c4c3CCC4)CC2)c([2H])c1[2H] , output reported pIC50.
6.99

Using known records, supply pIC50 for O=C(Cn1nc(C(=O)N2CCC(O)CC2)c2c1CCC2)N1CCC(c2cccc3c2CC3)CC1
7.60

(I) Cc1cc(C2CCN(C(=O)Cn3nc(C(=O)N4C[C@@H](C)O[C@@H](C)C4)c4c3CCC4)CC2)cc(C)c1Cl
(II) COc1ccc(C2CCN(C(=O)Cn3nc(C(=O)N4C[C@@H](C)O[C@@H](C)C4)c4c3CCC4)CC2)c(F)c1
Given I and II , report the one with the higher recorded pIC50. Give the chosen item's label as your response.
I
